Reference source: patent US8232407B2

Entries annotated with measured Pseudaletia separate Walker Mortality (%) 500 ppm
Tested on: Pseudaletia separate Walker
testDescription: Insecticidal activities to armyworm, leaf dipping and feeding
Assay type: in vivo
assaySetup: in vivo
measuredAttribute: Pseudaletia separate Walker Mortality (%) 500 ppm

> print(dat)
                                    compound  testvalue
 1  C[N+]1=C(C(=Cc2ccsc2)[N+](=O)[O-])N(Cc2ccc(Cl)nc2)CC1.[Cl-]         80
 2  O=[N+]([O-])C(=Cc1ccc(Cl)o1)C1=NCCN1Cc1ccc(Cl)nc1        100
 3  CC(=C(C1=NCCN1Cc1ccc(Cl)nc1)[N+](=O)[O-])c1ccoc1         68
 4  O=[N+]([O-])C(=Cc1ccc(Cl)s1)C1=NCCCN1Cc1ccc(Cl)nc1        100
 5  CC(=C(C1=NCCN1C(C)c1ccc(Cl)nc1)[N+](=O)[O-])c1ccsc1 (racemic)         95
 6  C[N+]1=C(C(=Cc2ccc(Cl)s2)[N+](=O)[O-])N(Cc2ccc(Cl)nc2)CC1.[Cl-]        100
 7  Cc1ccc(C=C(C2=NCCN2Cc2ccc(Cl)nc2)[N+](=O)[O-])s1        100
 8  Cc1ccc(C=C(C2=NCCCN2Cc2ccc(Cl)nc2)[N+](=O)[O-])o1        100
 9  O=[N+]([O-])C(=Cc1cc(Cl)cs1)C1=NCCN1Cc1cnc(Cl)s1        100
10  C[N+]1=C(C(=Cc2ccc([N+](=O)[O-])s2)[N+](=O)[O-])N(Cc2ccc(Cl)nc2)CC1.[Cl-]        100
11  O=[N+]([O-])C(=Cc1cc(Cl)c(Cl)o1)C1=NCCN1Cc1ccccc1         24
12  CC(=C(C1=NCCN1C(C)c1ccc(Cl)nc1)[N+](=O)[O-])c1cccs1 (racemic)        100
13  O=[N+]([O-])C(=Cc1ccsc1)C1=NCCN1Cc1cnc(Cl)s1        100
14  O=[N+]([O-])C(=Cc1ccc(Br)o1)C1=NCCN1CC1CCOC1 (centres unmarked)         87

====

Test system: Pseudaletia separate Walker
testDescription: Insecticidal activities to armyworm, leaf dipping and feeding
Assay type: in vivo
assaySetup: in vivo
measuredAttribute: Pseudaletia separate Walker Mortality (%) 500 ppm

> print(dat)
                                    compound  readingunit  testvalue
 1  C[N+]1=C(C(=Cc2ccc(Cl)s2)[N+](=O)[O-])N(Cc2cnc(Cl)s2)CC1.[Cl-] [Compound 283]            %        100
 2  C[N+]1=C(C(=Cc2ccsc2)[N+](=O)[O-])N(Cc2cnc(Cl)s2)CC1.[Cl-] [Compound 281]            %        100
 3  O=[N+]([O-])C(=Cc1ccc([N+](=O)[O-])s1)C1=NCCCN1Cc1ccc(Cl)nc1 [Compound 63]            %        100
 4  O=[N+]([O-])C(=Cc1oc(Cl)cc1Cl)C1=NCCN1CC1CCOC1 (stereo not drawn) [Compound 99]            %        100
 5  C[N+]1=C(C(=Cc2ccoc2)[N+](=O)[O-])N(Cc2cnc(Cl)s2)CC1.[Cl-] [Compound 276]            %        100
 6  C[N+]1=C(C(=Cc2cc(Br)co2)[N+](=O)[O-])N(Cc2ccc(Cl)nc2)CC1.[Cl-] [Compound 250]            %        100
 7  Cn1cccc1C=C(C1=NCCN1Cc1ccc(Cl)nc1)[N+](=O)[O-] [Compound 32]            %        100
 8  O=[N+]([O-])C(=Cc1cc(Cl)c(Cl)o1)C1=NCCN1Cc1ccc(Cl)nc1 [Compound 8]            %        100
 9  C[N+]1=C(C(=Cc2cccs2)[N+](=O)[O-])N(Cc2ccc(Cl)nc2)CC1.[Cl-] [Compound 259]            %        100
10  CC[N+]1=C(C(=Cc2ccc(Cl)s2)[N+](=O)[O-])N(Cc2ccc(Cl)nc2)CC1.[Cl-] [Compound 294]            %        100
11  CC(=C(C1=NCCN1Cc1ccc(Cl)nc1)[N+](=O)[O-])c1ccc(Cl)s1 [Compound 118]            %         19
12  C[N+]1=C(C(=Cc2cc(Br)c(Br)s2)[N+](=O)[O-])N(Cc2ccc(Cl)nc2)CC1.[Cl-] [Compound 268]            %        100
